B1: HDV Ribozyme (parent)
chain: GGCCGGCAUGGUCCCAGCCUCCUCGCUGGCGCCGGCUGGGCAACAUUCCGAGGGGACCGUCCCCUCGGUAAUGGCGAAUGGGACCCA

Variants of: B1
Assay: self-cleavage, relative activity (ratio to wild type); higher = more cleavage; co-transcriptional
Measured self-cleavage, listed per entry for reference.

These solved cases illustrate the format of a correct answer.
Input line: Using known records, supply self-cleavage for U37C G81C
Output line: 0.138

Input line: Note down self-cleavage recorded for C66G G73A
Output line: 0.434

Input line: Return value of self-cleavage for input G10U U23G , no commentary.
Output line: 0.0791

Input line: Tell us which self-cleavage value is on record for C22G G76C
Output line: 0.151

Input line: Retrieve self-cleavage measured for G50C C86G and print it.
Output line: 0.944

Others:
Input line: Read off the recorded self-cleavage for G29C G68C
Output line: 0.0449

Input line: Return value of self-cleavage for input G5C C13U , no commentary.
Output line: 0.133
